Tested on: NCI-H292 lung cancer cells
method: FDA drug screening, complete media vs cholesterol-free media without statin (TABLE 1)
Type: cell-based, human
test_context: NCI-H292 cells, FDA drug library screen, complete media
Where a name gives a salt, the structure may show the parent alone.
This section presents compounds with their documented Complete values.

| compound | Complete |
| --- | --- |
| Clc1cccc(Cl)c1N=C1NCCN1 [Clonidine (hydrochloride)] | 0.8162 |
| O=c1ccn([C@@H]2O[C@H](COP(=O)([O-])OP(=O)([O-])OP(=O)([O-])OP(=O)([O-])OC[C@H]3O[C@@H](n4ccc(=O)[nH]c4=O)[C@H](O)[C@@H]3O)[C@@H](O)[C@H]2O)c(=O)[nH]1.[Na+].[Na+].[Na+].[Na+] [Diquafosol (tetrasodium)] | 0.7536 |
| O=C(NCC(O)CO)c1c(I)c(C(=O)NCC(O)CO)c(I)c(N(CCO)C(=O)CO)c1I (stereo not drawn) | 1.064 |

====

Tested on: NCI-H292 lung cancer cells
method: FDA drug screening, complete media vs cholesterol-free media without statin (TABLE 1)
Type: cell-based, human
test_context: NCI-H292 cells, cholesterol-free media without statin, FDA drug library screen
We use 0.9 as the dividing line for Cholesterol-free: on or above the line is Satisfied, below is Not satisfied.

| compound | classification |
| --- | --- |
| CCCc1c2oc(C(=O)O)cc(=O)c2cc2c(=O)cc(C(=O)O)n(CC)c12 | Satisfied |
| COS(=O)(=O)[O-].C[n+]1c2ccccc2nc2ccccc21 [Phenazine (methylsulfate)] | Not satisfied |
| CCCC(=O)O[C@]1(C(=O)CO)CC[C@H]2[C@@H]3CCC4=CC(=O)CC[C@]4(C)[C@H]3[C@@H](O)C[C@@]21C [Hydrocortisone 17-butyrate] | Satisfied |
| CC(C)COc1ccc(CNC(=O)N(Cc2ccc(F)cc2)C2CCN(C)CC2)cc1 | Satisfied |

====

Test system: NCI-H292 lung cancer cells
method: FDA drug screening, complete media vs cholesterol-free media without statin (TABLE 1)
Format: cell-based, human
test_context: NCI-H292 cells, FDA drug library screen, cholesterol-free media without statin
Structures can show the parent of a compound that is named as a salt.
# Cholesterol-free annotations

| molecule | Cholesterol-free |
| --- | --- |
| CC12CC3CC(C)(C1)CC(N)(C3)C2 [Memantine (hydrochloride)] | 0.8008 |
| CCc1c2c(nc3ccc(OC(=O)N4CCC(N5CCCCC5)CC4)cc13)-c1cc3c(c(=O)n1C2)COC(=O)[C@]3(O)CC [Irinotecan (hydrochloride trihydrate)] | 0.3845 |
| [H]/N=C(/N)N/C(=N/[H])NCCc1ccccc1 [Phenformin (hydrochloride)] | 0.9657 |
| C=C[C@@H]1C[C@]1(NC(=O)[C@@H]1C[C@@H](Oc2ncc(OC)c3ccc(Cl)cc23)CN1C(=O)[C@@H](NC(=O)OC(C)(C)C)C(C)(C)C)C(=O)NS(=O)(=O)C1CC1 | 1.081 |
| N[C@@H](C(=O)N[C@@H]1C(=O)N2C(C(=O)O)=C(Cl)CS[C@H]12)c1ccccc1 | 1.02 |
| O=c1[nH]c(=O)n([C@H]2C[C@H](O)[C@@H](CO)O2)cc1C(F)(F)F | 0.2875 |
| O=C(CCCN1CCC(O)(c2ccc(Br)cc2)CC1)c1ccc(F)cc1 | 1.177 |
| CC(C)(C)c1cc(C(C)(C)C)c(NC(=O)c2c[nH]c3ccccc3c2=O)cc1O | 0.9826 |
| CC(C)(C)NCC(O)CSc1nc(-c2ccc(C(N)=O)s2)cs1 (stereo not shown) | 1.165 |
| O=NN(CCCl)C(=O)NC1CCCCC1 | 1.107 |
| NC(=O)C(c1ccccc1)(c1ccccc1)[C@@H]1CCN(CCc2ccc3c(c2)CCO3)C1 [Darifenacin (hydrobromide)] | 1.186 |
| CC(=O)OCC(=O)[C@@]12OC3(CCCC3)O[C@@H]1C[C@H]1[C@@H]3CCC4=CC(=O)C=C[C@]4(C)[C@@]3(F)[C@@H](O)C[C@@]12C [Amcinonide] | 1.081 |
| O=S(=O)([O-])CCSSCCS(=O)(=O)[O-].[Na+].[Na+] | 1.073 |
| C[N+](C)(C)NCCC(=O)[O-] [Mildronate] | 0.9949 |
| CN1CCC2=C(C1)c1ccccc1Cc1ccccc12 | 1.103 |
| CN1CCN2c3ncccc3Cc3ccccc3C2C1 (stereo not shown) | 1.176 |

====

Tested on: NCI-H292 lung cancer cells
method: FDA drug screening, complete media vs cholesterol-free media with simvastatin (TABLE 2)
Type: cell-based, human
test_context: NCI-H292 cells, FDA drug library screen, cholesterol-free media with simvastatin 0.04 μM
Numbered stars: 1 amine (or outer) side, 2 acyl side, 3 side chain; on linkers, the order of the positions; unused ones are H or OH. Bridge positions count the residues as written; N and C are the ends. Square brackets hold non-standard residues; d marks the D form. Peptide text beside a SMILES is read from it. * marks the point of attachment. pTerphenylCO(4''-OnC5H11) = CCCCCOc1ccc(-c2ccc(-c3ccc(C(=O)*)cc3)cc2)cc1; Orn(4R-OH,5R-OH) = O=C([C@H](C[C@@H](O)[C@@H](O)N[*:3])N[*:1])[*:2]; hTyr(3S-OH,4S-OH) = N[C@H](C(=O)O)[C@H](O)[C@@H](O)c1ccc(O)cc1; Pro(3S-OH,4S-Me) = C[C@H]1CN[C@H](C(=O)O)[C@H]1O; Hyp = O=C(O)[C@@H]1C[C@@H](O)CN1
measured_quantity: Cholesterol-free media + simvastatin (0.04 μM)

| molecule | numeric_value |
| --- | --- |
| Cc1cnc(C(=O)O)c[n+]1[O-] | 1.352 |
| CNC(=O)c1c(C)oc2cc(Oc3ncnc4cc(OC)c(OC)cc34)ccc12 | 1.198 |
| CCCCCOc1ccc(-c2ccc(-c3ccc(C(=O)N[C@H]4C[C@@H](O)[C@@H](O)NC(=O)[C@@H]5[C@@H](O)[C@@H](C)CN5C(=O)[C@H]([C@@H](C)O)NC(=O)[C@H]([C@H](O)[C@@H](O)c5ccc(O)cc5)NC(=O)[C@@H]5C[C@@H](O)CN5C(=O)[C@H]([C@@H](C)O)NC4=O)cc3)cc2)cc1 [Anidulafungin] ({pTerphenylCO(4''-OnC5H11)}-[Orn(4R-OH,5R-OH)]T[Hyp][hTyr(3S-OH,4S-OH)]T[Pro(3S-OH,4S-Me)]; lactam 1-C) | 1.251 |

====

Measured Difference by item
System: NCI-H292 lung cancer cells
method: FDA drug screening, complete media vs cholesterol-free media with simvastatin (TABLE 2)
Type: cell-based, human
test_context: complete media vs cholesterol-free media + simvastatin (0.04 μM); >0 enhanced anti-cancer activity, about 0 neutral, <0 antagonist
Counter-ions that a name gives are not always drawn.

| compound | system | Difference |
| --- | --- | --- |
| C[C@]12CCC3=C4CCC(=O)C=C4CC[C@H]3[C@@H]1CC[C@@]2(O)CC#N | NCI-H292 lung cancer cells | −0.21 |
| CC1(C)[C@@H](O[C@H]2O[C@H](C(=O)O)[C@@H](O)[C@H](O)[C@H]2O[C@@H]2O[C@H](C(=O)O)[C@@H](O)[C@H](O)[C@H]2O)CC[C@]2(C)[C@H]3C(=O)C=C4[C@@H]5C[C@@](C)(C(=O)O)CC[C@]5(C)CC[C@@]4(C)[C@]3(C)CC[C@@H]12 | NCI-H292 lung cancer cells | −0.13 |
| Cc1noc(NS(=O)(=O)c2ccc(N)cc2)c1C | NCI-H292 lung cancer cells | −0.08 |
| COc1c(C)c2c(c(O)c1C/C=C(\C)CCC(=O)OCCN1CCOCC1)C(=O)OC2 [Mycophenolate Mofetil] | NCI-H292 lung cancer cells | −0.09 |
| CCOC(=O)[C@H](CCc1ccccc1)N[C@@H](C)C(=O)N1C(=O)N(C)C[C@H]1C(=O)O [Imidapril (hydrochloride)] | NCI-H292 lung cancer cells | −0.43 |
| CCO[C@H]1O[C@@H]2O[C@@]3(C)CC[C@H]4[C@H](C)CC[C@@H]([C@H]1C)[C@@]24OO3 | NCI-H292 lung cancer cells | −0.16 |

====

The compounds listed here are annotated with their Complete.
Test system: NCI-H292 lung cancer cells
method: FDA drug screening, complete media vs cholesterol-free media without statin (TABLE 1)
Type: cell-based, human
test_context: NCI-H292 cells, FDA drug library screen, complete media
measured_quantity: Complete

| compound | numeric_value |
| --- | --- |
| OCCN1C[C@H](O)[C@@H](O)[C@H](O)[C@H]1CO | 0.8049 |
| CCOc1ccc(NC(C)=O)cc1 | 0.8688 |
| CC(=O)OCC(=O)[C@@]1(OC(C)=O)[C@@H](C)C[C@H]2[C@@H]3C[C@H](F)C4=CC(=O)C=C[C@]4(C)[C@@]3(F)[C@@H](O)C[C@@]21C | 0.6518 |
| CC1=C(C(=O)OCCN(Cc2ccccc2)c2ccccc2)C(c2cccc([N+](=O)[O-])c2)C(P2(=O)OCC(C)(C)CO2)=C(C)N1.CCO.Cl (centres unmarked) | 0.8325 |
| Cl.N=C(N)NCCC[C@H](N)C(=O)O [L-Arginine (hydrochloride)] | 1.256 |
| O=NN(CCCl)C(=O)NC1CCCCC1 | 0.965 |
| CC(=O)N(CC(O)CO)c1c(I)c(C(=O)NCC(O)CO)c(I)c(C(=O)NCC(O)CO)c1I (centres unmarked) [Iohexol] | 0.9228 |
| OC[C@@H](O)CN1CCN(c2ccccc2)CC1 | 0.7999 |
